Data provenance: paper PMC3914206

This listing pairs compounds with measured KINOMEscan: JAK1(JH2domain-pseudokinase).
Tested System: panel of 442 kinases (Homo sapiens, UniProt P23458)
Construct: purchased KINOMEscan
Sequence (P23458 whole entry): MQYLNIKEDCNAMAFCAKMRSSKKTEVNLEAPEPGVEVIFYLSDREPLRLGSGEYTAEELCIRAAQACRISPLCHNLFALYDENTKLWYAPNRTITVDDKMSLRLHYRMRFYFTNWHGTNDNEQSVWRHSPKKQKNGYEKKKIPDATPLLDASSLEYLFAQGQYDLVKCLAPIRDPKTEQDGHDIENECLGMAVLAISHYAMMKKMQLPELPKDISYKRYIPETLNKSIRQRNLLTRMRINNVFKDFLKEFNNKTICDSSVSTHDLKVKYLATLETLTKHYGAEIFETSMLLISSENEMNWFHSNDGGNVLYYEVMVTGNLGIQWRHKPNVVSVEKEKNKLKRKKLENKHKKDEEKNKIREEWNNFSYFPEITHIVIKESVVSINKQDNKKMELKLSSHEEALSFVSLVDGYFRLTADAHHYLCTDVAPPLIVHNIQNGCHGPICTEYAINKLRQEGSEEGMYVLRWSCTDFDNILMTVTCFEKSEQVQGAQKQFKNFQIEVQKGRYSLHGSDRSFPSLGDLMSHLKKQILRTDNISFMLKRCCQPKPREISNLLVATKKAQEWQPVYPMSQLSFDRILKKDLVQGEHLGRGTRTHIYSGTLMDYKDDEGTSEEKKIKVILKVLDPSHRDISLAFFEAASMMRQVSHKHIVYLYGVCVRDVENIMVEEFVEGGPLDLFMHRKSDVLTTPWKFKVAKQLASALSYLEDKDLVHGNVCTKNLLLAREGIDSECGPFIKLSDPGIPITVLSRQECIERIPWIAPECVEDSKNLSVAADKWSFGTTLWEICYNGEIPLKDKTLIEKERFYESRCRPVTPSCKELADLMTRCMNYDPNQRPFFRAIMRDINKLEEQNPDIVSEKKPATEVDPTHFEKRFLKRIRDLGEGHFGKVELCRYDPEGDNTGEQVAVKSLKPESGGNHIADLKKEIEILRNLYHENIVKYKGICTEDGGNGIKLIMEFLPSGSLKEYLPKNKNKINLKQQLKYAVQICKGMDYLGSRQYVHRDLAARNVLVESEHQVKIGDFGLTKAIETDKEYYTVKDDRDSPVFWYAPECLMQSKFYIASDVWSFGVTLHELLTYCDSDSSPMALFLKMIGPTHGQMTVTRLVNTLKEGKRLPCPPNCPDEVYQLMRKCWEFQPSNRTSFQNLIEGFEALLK
Format: binding
Details: Compound Concentration 10 µM
Excerpt: We assessed the selectivity of members of this scaffold using the KINOMEscan methodology across a near comprehensive panel of 442 kinases [[18,27]].
Attribute Measured: KINOMEscan: JAK1(JH2domain-pseudokinase)

[[record]]
compound = "CCOc1cc(C(=O)N2CCC(N3CCN(C)CC3)CC2)ccc1Nc1ncc2c(n1)N(C1CCCC1)c1ccccc1C(=O)N2C [Compound 26]"
result_number = 98

[[record]]
compound = "COc1cc(C(=O)N2CCC(N3CCN(C)CC3)CC2)ccc1Nc1ncc2c(n1)N(C)c1ccccc1C(=O)N2C [15 (LRRK2-IN-1)]"
result_number = 92

[[record]]
compound = "COc1cc(C(=O)N2CCC(N3CCN(C)CC3)CC2)ccc1Nc1ncc2c(n1)N1CCc3cccc(c31)C(=O)N2C [Compound 24]"
result_number = 62

[[record]]
compound = "COc1cc(C(=O)N2CCC(N3CCN(C)CC3)CC2)ccc1Nc1ncc2c(n1)N(C1CCCC1)c1ccccc1C(=O)N2C [Compound 25]"
result_number = 100

